# target-under-test: Hepsin (Homo sapiens, UniProt P05981)
# Construct: Recombinant hepsin (R&D Systems)
# Sequence (P05981 45-162 limits assumed): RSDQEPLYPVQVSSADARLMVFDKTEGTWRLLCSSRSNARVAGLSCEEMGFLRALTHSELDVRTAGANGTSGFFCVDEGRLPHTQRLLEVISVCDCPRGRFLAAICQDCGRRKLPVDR
# Sequence (P05981 163-417 limits assumed): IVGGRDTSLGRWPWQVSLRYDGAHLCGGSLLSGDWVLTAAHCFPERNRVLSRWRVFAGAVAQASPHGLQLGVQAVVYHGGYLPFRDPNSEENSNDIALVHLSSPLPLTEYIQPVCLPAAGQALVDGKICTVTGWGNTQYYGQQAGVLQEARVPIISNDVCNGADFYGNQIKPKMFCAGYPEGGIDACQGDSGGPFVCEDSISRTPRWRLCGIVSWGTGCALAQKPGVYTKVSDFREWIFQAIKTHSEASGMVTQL
# procedure-text: Fluorogenic protease assay with recombinant hepsin ([…]) and BOC-Gln-Arg-Arg-AMC ([…]), pH […] h incubation with drug
quantity-kind: pIC50
Keep in mind that pIC50 stands for -log10 of concentration in molar terms.

Item: CC1(C)CCC(CN2CCN(c3ccc(C(=O)NS(=O)(=O)c4ccc(NCC5CCOCC5)c([N+](=O)[O-])c4)c(Oc4cnc5[nH]ccc5c4)c3)CC2)=C(c2ccc(Cl)cc2)C1 [Venetoclax] | pIC50: 6.32
